// provenance: ChEMBL document CHEMBL6092124

Tested on: MCF-10A
Assay: Inhibition of MPC in human MCF-10A cells assessed as lactate concentration at 10 uM measured for 36 hrs
Assay type: cell-based
So basically every entry gets a class from its Activity, ranges being low: < 0.3 µmol/mL; middle: ≥ 0.3 µmol/mL and < 0.5 µmol/mL; high: ≥ 0.5 µmol/mL

Worked examples follow.
molecule: N#C/C(=C\c1cn(Cc2ccccn2)c2ccccc12)C(=O)O
target-or-system: MCF-10A
class-assignment: high
//
molecule: N#C/C(=C\c1cn(Cc2cccnc2)c2ccccc12)C(=O)O
target-or-system: MCF-10A
class-assignment: middle
//
molecule: CCOC(=O)/C(C#N)=C/c1cn(Cc2cccnc2)c2ccccc12
target-or-system: MCF-10A
class-assignment: high

Task: Class for `CCOC(=O)/C(C#N)=C/c1cn(Cc2ccncc2)c2ccccc12` ?
Result: low

Task: Class for `N#C/C(=C\c1cn(-c2cccnc2)c2ccccc12)C(=O)O` ?
Result: low

Task: Class for `CCOC(=O)/C(C#N)=C/c1cn(-c2cn(C)cn2)c2ccccc12` ?
Result: high

Task: Class for `N#C/C(=C\c1cn(-c2cncnc2)c2ccccc12)C(=O)O` ?
Result: high

Task: Class for `CCOC(=O)/C(C#N)=C/c1cn(-c2ccc3ccccc3c2)c2ccccc12` ?
Result: middle

* * *

Test system: MCF-10A
Experiment: Inhibition of MPC in human MCF-10A cells assessed as lactate concentration at 10 uM measured for 36 hrs
Assay type: cell-based
reported-endpoint: Activity (µmol/mL)
One number for each entry, in µmol/mL.

For every record below, what is its Activity?
1. N#C/C(=C\c1cn(-c2ccccn2)c2ccccc12)C(=O)O
2. CCOC(=O)/C(C#N)=C/c1cn(-c2cccnc2)c2ccccc12
3. CCOC(=O)/C(C#N)=C/c1cn(Cc2ccc3ccccc3c2)c2ccccc12
4. N#C/C(=C\c1cn(-c2ncccn2)c2ccccc12)C(=O)O

Result:
1. 0.489
2. 0.138
3. 0.268
4. 0.421
